Listed here: items and their measured TGI.
- Tested on: SK-OV-3 ovarian
- experimentalProtocol: NCI tumour cell line growth inhibition, 48 h
Numeric answer only, unit µM assumed.

compound	unitOfMeasure	recordedMeasurement
NC(=Nc1ccccc1)N/N=C/c1c[nH]c2ccccc12	µM	4.14
CC1=CC2(C)/C=C(C)/C=C\CC(O)/C=C3/C=CC(=C4C(=O)OC2(CC1C)C4=O)OC3 (centres undefined)	µM	47.3
Oc1ccc(-c2nc3cc(C(F)(F)F)ccc3s2)cc1	µM	40.7
COc1cc2c(cc1OC)C(Cl)C(c1ccc(Br)cc1)=C2Cl (centres undefined)	µM	45.9

Query TGI for CCOC(=O)c1sc2nc(SC)nc3c2c1NCN3C
38.3

Answer with the recorded TGI of OC(c1cc(C(F)(F)F)nc2c(Cl)cc(Cl)cc12)C1CCCCN1 (centres undefined) only.
25.2

For the compound COc1cc2c3c(n(C)c(=O)c2cc1OC)-c1cc2c(cc1/C3=C\CCCCl)OCO2 , report TGI.
49.3

* * *

Recorded TGI for the following molecules
- System: OVCAR-5 ovarian
- experimentalProtocol: NCI tumour cell line growth inhibition, 48 h

Example entries and their recorded answers appear below.
molecule	targetOrTestSystem	recordedMeasurement
COc1cc2ncnc(Oc3ccc(NC(=O)Nc4ccc(CN5CCOCC5)c(C(F)(F)F)c4)c4ccccc34)c2cc1OC	OVCAR-5 ovarian	6.95 µM
CCCCCCc1ccc(CCCCCCCC(=O)O)o1	OVCAR-5 ovarian	> 100 µM
Cc1cc(N(CCC#N)S(=O)(=O)c2ccccc2)ccc1C=Nc1ccc(C(=O)O)cc1	OVCAR-5 ovarian	38.7 µM
NC(=O)NNC/C(Cl)=C(\Cl)C(=O)O	OVCAR-5 ovarian	> 100 µM
O=[N+]([O-])c1ccc2c(c1)C(N1CCN(CCO)CC1)Cc1ccc(F)cc1S2 (stereo not given)	OVCAR-5 ovarian	26.9 µM
COc1ccc(/C(=N/O)c2ccccc2C2=Nc3ccccc3C(NCc3ccccc3)O2)cc1C (stereo not given)	OVCAR-5 ovarian	> 100 µM
Cc1cc(C)[n+]2c(c1)C=CC2	OVCAR-5 ovarian	> 100 µM
COC(=O)C1=C(C)NC(C)=C(C(=O)OC)C1c1cccc(/[N+]([O-])=C/c2ccccc2)c1	OVCAR-5 ovarian	> 100 µM
C[C@]12CC[C@H]3[C@@H](CC[C@]4(O)C[C@@H](O)CC[C@]34C=O)[C@@]1(O)CC[C@@H]2C1=CC(=O)OC1	OVCAR-5 ovarian	3.57 µM

Report TGI for Nc1nc(N)c2c(ccc3c2ccn3Cc2cccc([N+](=O)[O-])c2)n1
2.36 µM

* * *

- System: MDA-MB-435
- experimentalProtocol: NCI tumour cell line growth inhibition, 48 h
measure: TGI

# example entries with known answers
compound	targetOrTestSystem	TGI
O=C1C=CC2C3C(=O)N(c4ccccc4)C(=O)C3C1N2Cc1ccccc1 (stereo not given)	MDA-MB-435	8.05 µM
COc1cc2[nH]c3c(c2cc1OC)CCN[C@@]31CC[C@@]2(CC3c4c(cc(OC)c(O)c42)CCN3C)C[C@@H]1OC (stereo not given in full)	MDA-MB-435	41.4 µM
CSc1nnnc2ccccc12	MDA-MB-435	> 100 µM
CCOP(=O)(OCC)C(Nc1ccc(Cl)cc1)c1ccc(F)cc1 (stereo not given)	MDA-MB-435	39.7 µM
CN1C(=O)N(C)C2C1NC(=S)N2/N=C/C=C/c1ccccc1[N+](=O)[O-] (stereo not given)	MDA-MB-435	0.997 µM

Supply measured TGI of CC1CN(c2cc3c(cc2F)c(=O)c(C(=O)O)cn3-c2ccc(N3CCN(C)CC3)cn2)CC(C)N1 (stereo not given) in your reply.
> 100 µM

Give the reported value of TGI for this record: CC(=O)C(CN1C(=O)c2ccccc2C1=O)C(C)=O
> 100 µM

Look up and report measured TGI for this entry: NC1CC(=O)c2c(-c3cccs3)sc(-c3cccs3)c21 (stereo not given)
> 100 µM

Quote TGI reported for COc1cc2nc(-c3cccs3)nc(N3CCN(c4ccccc4)CC3)c2cc1OC please.
> 100 µM

Could you please provide reported TGI for N#Cc1sc2c(c1OC(=O)c1ccco1)c(=O)n(-c1ccccc1)c(=S)n2-c1ccccc1 ? Thanks!
84.4 µM

* * *

- Test system: OVCAR-8 ovarian
- experimentalProtocol: NCI tumour cell line growth inhibition, 48 h
Kindly return Y if reported TGI is no lower than 20 µM; return N if it is lower.

Some solved entries appear below for comparison.
compound	group
N=C1C=CC(=C(c2ccc(N)cc2)c2ccc(N)cc2)C=C1	N
COc1cc2nc(-c3cccs3)nc(Nc3ccccc3C(=O)NN)c2cc1OC	Y
CCCCCCCCCC1CC(=O)OC2=C1C(=O)CCC2 (stereo not given)	Y

Is it the case that O=C1C=CC2C3C(=O)N(c4ccccc4)C(=O)C3C1N2Cc1ccccc1 (stereo not given) has TGI reaching or exceeding 20 µM?
N

# bool: TGI of Oc1c(C(Nc2ccccn2)c2ccccc2)ccc2cccnc12 (stereo not given) >= 20 µM
Y

# bool: TGI of CCOc1ccc2c(c1)C(/C(C(Cl)=C(Cl)Cl)=[N+](/[O-])OC(=O)c1ccccc1)=N2 >= 20 µM
Y

Form field: TGI at least 20 µM? Entry: Clc1cnc(Nc2ccc(OCCN3CCCC3)cc2)nc1NCc1ccco1
N

Entry Cc1cc(-c2ccccc2)nc(Nc2cc3ccccc3[nH]2)n1 : is its TGI no less than 20 µM?
Y

Assess whether reported TGI for CCOC(=O)c1sc2nc(SC)nc3c2c1NCN3C sits at 20 µM or higher.
Y

Given COc1cc2c(cc1OCC(=O)Nc1ccc(Cl)cc1C(=O)c1ccccc1Cl)N=CC1CCCN1C2=O (stereo not given) , state whether its TGI is at least 20 µM.
Y

Threshold query (TGI >= 20 µM) on CCCCCc1cc2cc3c(c(O)c2c(=O)[nH]1)C1(CCC3)C(=O)c2c(O)ccc(O)c2C1=O
Y

Record O=C(Nc1ccc(Br)cc1)C(=O)C(C(=O)c1ccc(Cl)c(Cl)c1)C1OC(=O)c2ccccc21 (stereo not given) ; criterion: TGI no lower than 20 µM. Met?
Y

Does the compound CC(=O)NC1C(OCc2ccccc2)OC(CO)C(O)C1OC(C)C(=O)NC(C(=O)NC(CCC(=O)NCCCNc1ccc([N+](=O)[O-])c2[nH]c3ccccc3c(=O)c12)C(N)=O)C(C)C (stereo not given) have recorded TGI that is 20 µM or more?
Y

State whether the measured TGI reaches 20 µM, counting equality as reaching it, for CCCCCCCCCCCC(=O)N(CCCCCCCCC)CC(O)C(O)C(OC1OC(CO)C(O)C(O)C1O)C(O)CO (stereo not given)
Y

Identify whether the reported TGI of the following compound is 20 µM or greater: CCSC12OC3(CCCCCN3C1=O)C1C(=O)N(c3ccccc3)C(=O)C12 (stereo not given)
Y

* * *

- System: SNB-19 CNS
- experimentalProtocol: NCI tumour cell line growth inhibition, 48 h
Reported values of TGI for individual entries

Example compounds with recorded TGI:
compound	recordedMeasurement
COc1ccc(C(=O)/C=C/c2ccc(OCc3cccc(C(F)(F)F)c3)c(OC)c2)cc1OC	> 1000 µM
Oc1c(C(c2ccc(F)cc2)N2CCCCC2)ccc2cncnc12 (configuration not stated)	> 100 µM
O=S(=O)(O)c1cc(S(=O)(=O)O)c2cc(N=Nc3ccc(N=Nc4ccc(/C=C/c5ccc(N=[N+]([O-])c6ccc(/C=C/c7ccc(N=Nc8ccc(N=Nc9ccc%10cc(S(=O)(=O)O)cc(S(=O)(=O)O)c%10c9)cc8)cc7S(=O)(=O)O)c(S(=O)(=O)O)c6)cc5S(=O)(=O)O)c(S(=O)(=O)O)c4)cc3)ccc2c1	> 100 µM
O=C1C(Cl)N(c2ccc([N+](=O)[O-])cc2)C1c1c[nH]c2ccccc12 (configuration not stated)	> 100 µM
CC1(C)C2CC3C(C)(C2)C31c1cc(Cl)ccc1N (configuration not stated)	33.5 µM
CCCCCc1cc2cc3c(c(O)c2c(=O)[nH]1)C1(CCC3)C(=O)c2c(O)ccc(O)c2C1=O	> 100 µM

From here, focus on the item given below.
Quickly give me recorded TGI for CC(C)[C@@H](C(=O)O[C@@H]1/C=C/C(=O)O[C@@H](C)CCC/C=C/[C@@H]2C[C@H](O)C[C@H]21)N(C)C
> 100 µM

* * *

- Test system: PC-3 prostate
- experimentalProtocol: NCI tumour cell line growth inhibition, 48 h
measure: TGI

Recorded results for 5 molecules are shown here.
molecule	TGI
CCCCCCC(=O)NC1=C(N2CC2)C(=O)C(NC(=O)CCCCCC)=C(N2CC2)C1=O	> 100 µM
Clc1cnc(Nc2ccc(OCCN3CCCC3)cc2)nc1NCc1ccco1	8.53 µM
Cc1cc(OCc2ccc(C(F)(F)F)cc2)c2c(c1)C(=O)C=C(NCCN1CCCC1)C2=O	19.5 µM
O=C(CC(=O)N1N=C(c2ccccc2)C(N=Nc2ccc(S(=O)(=O)CCOS(=O)(=O)O)cc2)C1=O)Nc1ccc(Cl)cc1 (stereo unspecified)	> 100 µM
COc1cc2nc(-c3cccs3)nc(N3CCN(c4ccccc4)CC3)c2cc1OC	> 100 µM

Quickly give me recorded TGI for O=C(CCCCCNC(=O)c1ccc(Cl)cc1)NO
9 µM

Please give measured TGI of the following entry: Cc1ccc2sc3c(NCCCN)nc4ccccc4c3c(=O)c2c1
3.4 µM

Specify measured TGI for N#CCCN(CCCCN(CCC#N)C(=O)Nc1ccccc1)C(=O)Nc1ccccc1 .
> 100 µM

Quickly give me recorded TGI for COC1C(O)C(C)OC(O[C@H]2CC[C@@]3(C)C(CC[C@@H]4[C@@H]3CC[C@]3(C)[C@@H](C(C)OC5OC(CO)C(O)C(O)C5O)CC[C@]43O)C2)C1O (stereo partly specified)
> 25 µM

Note down TGI recorded for CC1=CC(C)=N/C(=N/S(=O)(=O)c2cc(C)c(Cl)cc2SCc2ccccc2)NN1
> 100 µM

Tell us which TGI value is on record for CCC[N+](C)(C)CCCNC(=O)c1c(O)c2ccccc2[nH]c1=O
> 100 µM

For the molecule O=C1CCCC1CC(CN1CCOCC1)Sc1nnnn1-c1ccccc1 (stereo unspecified) , report TGI.
> 100 µM
